Test system: ESCHERICHIA COLI H560
Assay: In vitro antibacterial activity, MIC, BHI agar dilution
Format: cell-based
Settings: E. coli H560, unit assumed
experimentalReadout: MIC (µg/mL)
Answers are plain numbers, in µg/mL.

>  <compound>
CC[C@H]1OC(=O)[C@H](C)C(=O)[C@H](C)[C@@H](O[C@@H]2O[C@H](C)C[C@H](N(C)C)[C@H]2O)[C@](C)(OC)C[C@@H](C)C2=N[C@H](COCc3ccc(F)cc3)CN3C(=O)O[C@@]1(C)[C@H]3[C@H]2C [Example 101]

>  <MIC / µg/mL>
100

$$$$
>  <compound>
CC[C@H]1OC(=O)[C@H](C)C(=O)[C@H](C)[C@@H](O[C@@H]2O[C@H](C)C[C@H](N(C)C)[C@H]2O)[C@](C)(OC)C[C@@H](C)C2=NCC(COC(=O)c3ccc([N+](=O)[O-])cc3)N3C(=O)O[C@@]1(C)[C@H]3[C@H]2C (stereo partly drawn) [Example 140]

>  <MIC / µg/mL>
25

$$$$

// moving on: another record for MIC
If you can, please state the reported MIC value of CC[C@H]1OC(=O)[C@H](C)C(=O)[C@H](C)[C@@H](O[C@@H]2O[C@H](C)C[C@H](N(C)C)[C@H]2O)[C@](C)(OC)C[C@@H](C)C2=N[C@H](COCc3ccncc3)CN3C(=O)O[C@@]1(C)[C@H]3[C@H]2C [Example 77] .
50
